# System: U251 CNS
# Experiment: NCI tumour cell line growth inhibition, 48 h
Measured property: TGI

// solved cases for TGI follow
Cc1ccc(S(=O)(=O)NC(=O)NC(CO)C(=O)O)cc1 (stereo not given)
> 100 µM
O=C1CC(=O)N(C2CCCCC2)C(=O)N1c1ccccc1S(=O)(=O)Oc1ccccc1
> 100 µM
NS(=O)(=O)c1ccc(NC(=O)c2cc([N+](=O)[O-])cc([N+](=O)[O-])c2)cc1
> 100 µM
CCOC(=O)C1(Cc2ccccc2)Cc2cc3c(cc2C1)CCC3
> 100 µM

Exercise: Form field: reported TGI of "O=C(c1cccs1)c1c(C(F)(F)F)n([O-])c2ccc(C(F)(F)F)cc2[n+]1=O"
Key: 0.322 µM

Exercise: I would be grateful if you could share the reported TGI for "N#C/C(=C\c1c(-c2ccccc2)[nH]c2ccccc12)C(=O)c1ccc(Cl)cc1" .
Key: 16.2 µM

Exercise: Fill in: TGI of "O=C(Nc1n[nH]c2nc(-c3ccco3)c(Br)cc12)C1CC1" is ___
Key: > 25 µM

Exercise: # TGI lookup, item Cc1ccc2c(c1)NC(c1ccc(C(=O)O)cc1)c1cccn1-2 (stereo not given)
Key: > 100 µM

Exercise: Dear colleague, I am looking for the recorded TGI of the following molecule: "Clc1ccccc1/C=C/c1nsc(/C=C/c2ccccc2Cl)n1"
Key: > 100 µM

Exercise: Sample "O=S(=O)(c1ccc(NC(=S)N/N=C/c2ccccc2O)cc1)N1CCCCC1" — what was its TGI?
Key: 16.8 µM

---

Each entry below lists one item and its recorded TGI value.
# Test system: NCI-H226 lung
# Experiment: NCI tumour cell line growth inhibition, 48 h
The answer is to be given in µM; state only the numeric part.

OC1c2ccccc2[C@@H]2[C@H]1[C@@H](c1ccccc1)C1(Cc3ccccc3C1O)[C@H]2c1ccccc1 (stereo not given in full)
19.4

Query compound follows.
Exercise: Given the entry "COc1ccc(/C=C2\CN(C(=O)CCN3CCC(=NO)CC3)C/C(=C\c3ccc(OC)cc3)C2=O)cc1" , report its measured TGI.
Key: 7.54

---

Recorded TGI for the following molecules
# Test system: OVCAR-5 ovarian
# Experiment: NCI tumour cell line growth inhibition, 48 h
Your answer is read as µM, so omit the unit and give the number.

Sample answers from the record:
O=C(CCCc1c[nH]c2ccccc12)NC1CC(=O)c2c(Br)sc(Br)c21 (stereo not given)
31.7
CC(CC(=O)CO[C@H]1[C@H](O)[C@@H](O)[C@@H](O)[C@@H]2NC(=O)c3c(cc4c(c3O)OCO4)[C@H]21)OC1OC(CO)C(O)C(O)C1O (stereo not given in full)
5.7
CC[C@@H]1CN2CCC1C[C@@H]2C(O)c1ccnc2ccc(OCCN3CCN(CCOc4ccc5nccc(C(O)[C@@H]6C[C@@H]7CCN6C[C@@H]7CC)c5c4)CC3)cc12 (stereo not given in full)
32.9

Field: next molecule
Exercise: Param item = "COc1ccc2c(c1)c1nn(CCN(C)C)c3ccc4c(=O)n(CCN(C)C)c(=O)n2c4c13" ; retrieve measured TGI.
Key: 0.44

---

Measured TGI by item
# Test system: SR leukemia
# Experiment: NCI tumour cell line growth inhibition, 48 h

# example entries with known answers
Cc1c(NC(=O)C(=O)N=NC(=O)c2ccncc2)c(O)c2ccccc2c1O
> 36.4 µM
CCOC(=O)Cc1c(Cc2[nH]c(C(=O)OCc3ccccc3)c(CC(=O)OCC)c2CC(=O)OCC)[nH]c(C(=O)OCc2ccccc2)c1CC(=O)OCC
> 100 µM
CC(=O)Oc1ccccc1[C@H]1CC(=O)C[C@H](c2ccccc2OC(C)=O)C12C(=O)c1ccccc1C2=O
> 100 µM

Now, please, on to the next compound.
Exercise: I have this compound here, CC(Cl)(/C=C/Cl)C(Cl)/C=C/C(Cl)(CCl)CBr (centres undefined) , and I need its recorded TGI.
Key: 2.07 µM
